test: PET hydrolysis, aromatic products released after 48 h (umol product/mg enzyme); higher = more PET depolymerization activity; details: substrate: cryPow; 60 °C; pH 5.5
Please go through the items and note down their PET hydrolysis.

Prompt: Record request: PET hydrolysis value, item AANPYERGPDPTDAILEAARGPFETSRTEVPALSVTGFGGGTIYYPATTSAGTFGGVAVAPGYTADRTSLAWLAERLASHGFVVFNIDTLTRLDQPDSRGRQLLAALDYLTQRSSVRGRLDAGRLGVMGHSMGGGGTLEAARDRPSLQAAVPLTPWDLTKIWSGVRVPTMIVGAEADTIAPVASHAEPFYQSLPSSPGKAYLELNNATHFAPNVPDTTIGKYVVAWMKRFVDDDTRYTRFLCPGPSGGLTVEEYRSTCPFS [TEP194]
Completion: 7

Prompt: What does the data say about its PET hydrolysis? Entry: ADNPYQRGPDPTRTSVAAVNGPFANTSVSVPTGYGFNGGRIYYPTDTSQGTFGAIAISPGYTALFSAELAWMGPWLASHGFVVIGIETNSRNDFDTARGTQLLAALDYLTQQSPVRDRVDPNRLAVSGHSMGGGGALSAAIRRSSLKAVVGIAPYSPSSNLANDRVPTMIFSGQADTVVTPSYATGLYNSLPATTESVYLEVAGADHGFMVGRSNPVMIRTMLPFVKMFIDNDTRYSQFLCPLLDSSGVVTYRSTCPLLPPAPTTPPPTGTPTPTPSSNPTTPPTTPPSTPTA [ESM061]
Completion: < 3

Prompt: Name the reported PET hydrolysis value associated with the sequence QPTLESLGNPGPYQVAYYDQLPEVDEYGAATLYFPANRGTDFGGVAIAPGFIEQQENIEWWGRHLASYGFAVLVLDTNNPRDDPQVRSEALLAALDVIRGEGARSGSPIRGKILNDRMAVMGHSMGGGGTLLAANRASDQLKAIIPFTPWLPNADFSSVAVPTLVLAGEVDRIASVAEHAWPHFQTLPEGIPRMYVEIAGGNHFIANSTTDQERLNPNIDVHDLVGALGVAWLKYFVDGDEDYRDLIYGELPAEQRARLSRFEFVQ [TEP107]
Completion: < 3

Prompt: Can you share its PET hydrolysis? I mean this sequence: AETTTQHGPDPTEGSITAPTGPFQTDQKTVPRSSVQGFGGGTIYYPTETSQGTFGAVTIAPGYTAGKESLAWLGPRLASQGFVVFTIDTITTSDQPDSRAKQLMASLDYLTGDSDVRDRIDTSRLAVMGHSMGGGGTLEAARDNRNLKAAIPMTPWDTTKDFSGVQTPTLIIGAQNDTIAPVAQHAKPFYGSLPDDPGKAYLELAGASHFAPNQDNTTIAKSSIAWLKRFVDDDTRYDQFLCPPPQDAEISDYQSTCPY [TEP037]
Completion: < 3

Prompt: Consider the sequence shown here: ATTAAAPAAAVRADSPYQRGPAPTEASVTAARGPFAIAQVTVPAGSGTGFNKGTIYYPTDTGQGTFGGVAVMPGFTSPQSVIQWLGPRLASQGFLVFTLDSLSLVDFPTARSQQLLAALDYLATRSTVRTRLDPNRLAVMGHSMGGGASLWAAQNRPSLKASVPLAPWETDTTWQGVRVPTMIIGGQADTVAPPATMAIPDYTSMTSAPEKAYLELRNGGHGAPATESPTVAKYALSWLKRFVDLDTRYDQFLCPAPAPTTAISQYRDTCPNG [DP058] What is its recorded PET hydrolysis?
Completion: < 3

Prompt: Return reported PET hydrolysis; argument: QAPDRTALARTGPYQVAYYTQLPPAAEFSAATLFFPANKAQAFGGVVIAPGYTEKQVNVQWWGYHLASHGYAVLVLDTNDPEEYPDRRADALMAGVAVLRGENTRMGSTLRGKILEGRIALMGHSMGGGGTLLAANGHSDQLKTIIPFTPWLPGADFSAVSVPTLVLAGEIDRIAAVKDHAWPHYESLTGAVPRMYLEVKGGNHYIANSMTDREDRNPNIDVHDLVGSMVVAWLKTFLDDDESYRELVFGDLPEADRVRISRLEFVE [TEP006]
Completion: < 3

Prompt: Consider the sequence ADNPYQRGPNPTAASIAATTGPFAIASVSVARGNGFGGGVIYYPTDTSQGTFGAIAISPGLNGTWPGIAWLGPRLASQGFVVFGIETNNLNDSPTSRGTQLLAALDYLTQRSSVRTRVDATRLAVAGHSMGGGGALDAALRRPSLQAAIGNAPYLPSGNLSTDRVPTLIYAMQNDTLVPPSRLTTMYNTIPATTERGYIQITGAGHNYIGQPSTNLARTMIPWFKIFIDNDTRFSQFLCPLSNMSGISQYRNSCPLI [ESM159] and give its measured PET hydrolysis.
Completion: < 3

Prompt: Please look up its PET hydrolysis: ADNPYQRGPDPTNASIEAATGPFAVGTQPIVGASGFGGGQIYYPTDTSQTYGAVVIVPGFISVWAQLNWLGPRLASQGFVVIGIETSVITDLPDPRGDQALAALDWATTRSPVASRIDRTRLAAAGWSMGGGGLRRAALQRPSLKAIVGMAPWNGERNWSAVTVPTLFFGGSSDAVASPNDHAKPFYNSITRAEKDYIELRNADHFFPTSANTTMAKYFISWLKRWVDNDTRYTQFLCPGPSTGLFAPVSASMNTCPF [DP077]
Completion: 6

Prompt: GET /values?readout=PET hydrolysis&item= AVHGPDPTDALLEASRGPYATAQIDVSALAVSGFGGGTIYYPTTTSEGTFGGVAIAPGYTADKSSLAWLAARLASHGFVVFNIDTLTRLDQPDSRGRQLLAALDYLTQRSSVRSRVDASRLGVMGHSMGGGGTLEAAVSRPSLRAAVPLTPWNLDKTWPEVRTPTLIIGADLDTIAPVLTHAEPFYASLPSTLDKAYLELNNATHFAPNITDTTIGKYAVAWMKRFIDDDTRYNRFLCPGPSWSLSVEEYRSTCPF [TEP061]
Completion: < 3

Prompt: Item GTTASATTVSGTQAAAAQEYRRGPDPTAQSVEAATGPFAIQQTSVPAGNGFGGGTIYYPTDTSQGTFGAIAISPGWTEDQSAIAWLGPKLASNGFVVMTINNNNAFLDFPDARGTQLLAALDSLTGQSPVAGRIDKNRLAVAGHSMGGGGALRAAATRPEIQAAIPLTPWHLNQDWSSVRVPTLIVGGETDIIASVGAHSEPFYESLTNAPERAYLEMEGQGHFVTNSANPTVGRYVLSWLKRYVDNDTRYEQFLCPAPAPSSVISEYRDSCPGS [DP018] has what recorded PET hydrolysis?
Completion: < 3

The measured values listed here are drawn from the supplement of paper PMC12455559.
